Cited source: patent US20030166571A1

Known % Stimulation of [35S]GTPγS binding of a selection of binders
molecular target: human ORL-1 receptor (opioid receptor like 1) (human, UniProt P41146 1-370); experiment: cell-based or functional assay
Sequence (P41146 whole entry): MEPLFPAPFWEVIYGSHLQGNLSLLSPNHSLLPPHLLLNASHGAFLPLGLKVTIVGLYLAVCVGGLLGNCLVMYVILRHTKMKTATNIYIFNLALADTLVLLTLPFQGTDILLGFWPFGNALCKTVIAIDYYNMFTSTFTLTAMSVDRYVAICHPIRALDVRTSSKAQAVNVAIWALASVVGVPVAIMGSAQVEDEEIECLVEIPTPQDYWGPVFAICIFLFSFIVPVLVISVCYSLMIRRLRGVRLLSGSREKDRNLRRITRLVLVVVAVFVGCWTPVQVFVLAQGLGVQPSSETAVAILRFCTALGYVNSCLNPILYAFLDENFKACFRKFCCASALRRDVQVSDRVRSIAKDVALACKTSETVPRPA
Numbered stars: 1 amine (or outer) side, 2 acyl side, 3 side chain; on linkers, the order of the positions; unused ones are H or OH. Square brackets hold non-standard residues; d marks the D form. hPhe(2,4-di-NO2) = 2,4-di-NO2 homophenylalanine, O=C([C@H](CCc1ccc([N+](=O)[O-])cc1[N+](=O)[O-])N[*:1])[*:2]; Phe(4-NHAc) = 4-acetamidophenylalanine, CC(=O)Nc1ccc(C[C@H](N[*:1])C(=O)[*:2])cc1
Answer with a number only, understood to be in %.

### Prompt Can you share its % Stimulation of [35S]GTPγS binding? I mean this binder: Ac-RY[hPhe(2,4-di-NO2)]RWR-NH2 (SMILES CC(=O)N[C@@H](CCCNC(=N)N)C(=O)N[C@@H](Cc1ccc(O)cc1)C(=O)N[C@@H](CCc1ccc([N+](=O)[O-])cc1[N+](=O)[O-])C(=O)N[C@@H](CCCNC(=N)N)C(=O)N[C@@H](Cc1c[nH]c2ccccc12)C(=O)N[C@@H](CCCNC(=N)N)C(N)=O, also called Ac-Arg-Tyr-hPhe(2,4-di-NO2)-Arg-Trp-Arg-NH2) [VII-71-B]
### Response 33.6

### Prompt Next entry: Ac-RY[Phe(4-NHAc)]RWR-NH2 (SMILES CC(=O)Nc1ccc(C[C@H](NC(=O)[C@H](Cc2ccc(O)cc2)NC(=O)[C@H](CCCNC(=N)N)NC(C)=O)C(=O)N[C@@H](CCCNC(=N)N)C(=O)N[C@@H](Cc2c[nH]c3ccccc23)C(=O)N[C@@H](CCCNC(=N)N)C(N)=O)cc1, also called Ac-Arg-Tyr-Phe(4-NHAc)-Arg-Trp-Arg-NH2) [VII-77-A]
### Response 19
